# Target: T1, hBTLA (human BTLA protein coated on plates or coupled to a chip) (human, UniProt Q7Z6A9 31-157, limits assumed)
# T1 sequence (looked up): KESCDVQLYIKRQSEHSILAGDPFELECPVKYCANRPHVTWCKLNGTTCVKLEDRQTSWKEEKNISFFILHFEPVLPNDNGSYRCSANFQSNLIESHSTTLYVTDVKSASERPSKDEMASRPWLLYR
# Assay remarks: ELISA, hBTLA coated at 0.5 µg/mL, anti-human IgG4-HRP detection
Measurement type: EC50 (ng/mL)
Use ng/mL as the unit, but write only the number.

Binder	EC50 [ng/mL]
chimeric antibody ch27 (antibody, human IgG4, V domains shown, T0010 gives only CDR numbers (HCDR 28-30, LCDR 10-12)) VH: EVHLQQSGTELMKPGASVKLSCTASGLNIRDTYMHWVKQRPEQGLEWIGRIDPANGNTKFDPKFQGKATLTSDTSSNTAYLHFSSLTSEDAAVYYCVSDHYGSSLLDYWGQGTSLTVSS VL: EVVMTQTPLTLSVTIGQSASISCKSSQSLLDSDGKTYLNWFLQRPGQSPKRLMHLVSKLDSGVPDRFTGSGSGTDFTLKISGVEAEDLGVYYCWQGTYFPYTFGGGTKLETK	5.2
chimeric antibody ch22 (antibody, human IgG4, V domains shown, T0010 gives only CDR numbers (HCDR 25-27, LCDR 10-12)) VH: EVQLQQSGAELVRPGASVKLSCTVSGFNIKDTYVHWVKQRPEQGLEWIGRIDPANGHTKYDPKLQGTATITADTSSNTAYLQLSSLTSEDTAVYYCATDYYGSSLLDYWGQGTTLTVSS VL: EVVMTQTPLTLSVTIGQSASISCKSSQSLLDSDGKTYLNWFLQRPGQSPKRLMHLVSKLDSGVPDRFTGSGSGTDFTLKISGVEAEDLGVYYCWQGTYFPYTFGGGTKLETK	37.3

Report EC50 for chimeric antibody ch17 (antibody, human IgG4, V domains shown, T0010 gives only CDR numbers (HCDR 19-21, LCDR 10-12)) VH: EVQLQQSGADLVKPGASVKLSCTASGFNIKDTYVHWVKQRPEQGLEWIGRIDPANGHTKFDPKFQGKATITADTSSNTANLQISSLTSEDTAVYYCVSDYYGSSLLDYWGQGTTLTVSS VL: EVVMTQTPLTLSVTIGQSASISCKSSQSLLDSDGKTYLNWFLQRPGQSPKRLMHLVSKLDSGVPDRFTGSGSGTDFTLKISGVEAEDLGVYYCWQGTYFPYTFGGGTKLETK please. 29.8

# input binder: chimeric antibody ch12 (antibody, human IgG4, V domains shown, T0010 gives only CDR numbers (HCDR 13-15, LCDR 10-12)) VH: EVQLQQSGADLVKPGASVKLSCTASGFNFKHTYAHWVKQRPEQGLEWIGRIDPANGNTKYDPKFQGKATMTADTASNAAFLQLSSLTSEDTAVYYCVADHYGSSLLDYWGQGTSLTVSS VL: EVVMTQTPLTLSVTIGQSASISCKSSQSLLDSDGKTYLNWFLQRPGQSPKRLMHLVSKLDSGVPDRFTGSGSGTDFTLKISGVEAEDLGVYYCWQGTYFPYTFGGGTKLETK ; wanted: its EC50 9.4

Item chimeric antibody ch7 (antibody, human IgG4, V domains shown, T0010 gives only CDR numbers (HCDR 4-6, LCDR 10-12)) VH: EVQLQQSGAELVKPGASVKLSCTVSGFNIKDSYIHWVKQRPEQGLEWIGRIDPANGNTKYDPKFRGKATITADASSNTAALQVSSLTSEDTAVYFCVGDHYGSSLFDYWGHGTTLTVSS VL: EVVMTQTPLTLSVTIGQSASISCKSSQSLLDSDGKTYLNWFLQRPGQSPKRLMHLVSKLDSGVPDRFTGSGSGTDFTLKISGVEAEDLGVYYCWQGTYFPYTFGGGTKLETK has what recorded EC50? 6.6
